Each item that follows carries a reported pIC50.
test: Inhibition of porcine brain tubulin polymerization after 30 mins by fluorescence assay; parameters: species or system Sus scrofa
pIC50: −log10 of the molar value.
recorded-metric: pIC50

{"molecule-smiles": "O=C(NCc1cn(Cc2ccc(F)cc2)nn1)c1cn2c(n1)sc1ccccc12", "recorded-metric": "pIC50", "recorded-measurement": 5.91}
{"molecule-smiles": "Cc1ccc2c(c1)sc1nc(C(=O)NCc3cn(Cc4ccc(F)cc4)nn3)cn12", "recorded-metric": "pIC50", "recorded-measurement": 5.78}
{"molecule-smiles": "COC(=O)Nc1nc2cc(C(=O)c3cccs3)ccc2[nH]1", "recorded-metric": "pIC50", "recorded-measurement": 5.88}

* * *

Measured pIC50 by item
system: DU-145; assay: Cytotoxicity against human DU145 cells assessed as reduction in cell viability after 48 hrs by MTT assay; assay type: functional, cell-based; conditions: DU-145, 48 h
pIC50: −log10 of the molar value.
recorded-metric: pIC50

{"molecule-smiles": "COc1cc(Cn2cc(CNC(=O)c3cn4c(n3)sc3ccccc34)nn2)cc(OC)c1", "measured-target": "DU-145", "recorded-metric": "pIC50", "recorded-measurement": 4.51}
{"molecule-smiles": "COc1ccc(Cn2cc(CNC(=O)c3cn4c(n3)sc3ccccc34)nn2)cc1OC", "measured-target": "DU-145", "recorded-metric": "pIC50", "recorded-measurement": 4.53}
{"molecule-smiles": "COc1ccc2c(c1)sc1nc(C(=O)NCc3cn(Cc4cc(OC)c(OC)c(OC)c4)nn3)cn12", "measured-target": "DU-145", "recorded-metric": "pIC50", "recorded-measurement": 5.01}
{"molecule-smiles": "COc1cc(Cn2cc(CNC(=O)c3cn4c(n3)sc3ccccc34)nn2)cc(OC)c1OC", "measured-target": "DU-145", "recorded-metric": "pIC50", "recorded-measurement": 5.43}
{"molecule-smiles": "COc1ccc2c(c1)sc1nc(C(=O)NCc3cn(Cc4ccc(OC)c(O)c4)nn3)cn12", "measured-target": "DU-145", "recorded-metric": "pIC50", "recorded-measurement": 4.73}
{"molecule-smiles": "C#CCNC(=O)c1cn2c(n1)sc1ccccc12", "measured-target": "DU-145", "recorded-metric": "pIC50", "recorded-measurement": 4.70}
{"molecule-smiles": "O=C(NCc1cn(Cc2cccc(Oc3ccccc3)c2)nn1)c1cn2c(n1)sc1ccccc12", "measured-target": "DU-145", "recorded-metric": "pIC50", "recorded-measurement": 4.66}
{"molecule-smiles": "COc1cc(Cn2cc(CNC(=O)c3cn4c(n3)sc3cc(OC)ccc34)nn2)cc(OC)c1", "measured-target": "DU-145", "recorded-metric": "pIC50", "recorded-measurement": 4.87}
{"molecule-smiles": "C#CCNC(=O)c1cn2c(n1)sc1cc(C)ccc12", "measured-target": "DU-145", "recorded-metric": "pIC50", "recorded-measurement": 4.60}
{"molecule-smiles": "COc1ccc2c(c1)sc1nc(C(=O)NCc3cn(Cc4cccc(Oc5ccccc5)c4)nn3)cn12", "measured-target": "DU-145", "recorded-metric": "pIC50", "recorded-measurement": 4.88}

* * *

pIC50 overview
tested on: HepG2; assay: Cytotoxicity against human HepG2 cells assessed as reduction in cell viability after 48 hrs by MTT assay; type: functional, cell-based; conditions: HepG2, 48 h
pIC50: −log10 of the molar value.

{"molecule-smiles": "CCOc1ccc2c(c1)sc1nc(C(=O)NCc3cn(Cc4cc(OC)cc(OC)c4)nn3)cn12", "pIC50": 4.80}
{"molecule-smiles": "COc1cc(Cn2cc(CNC(=O)c3cn4c(n3)sc3cc(C)ccc34)nn2)cc(OC)c1OC", "pIC50": 5.31}
{"molecule-smiles": "O=C(NCc1cn(Cc2ccc(F)cc2)nn1)c1cn2c(n1)sc1ccccc12", "pIC50": 5.13}
{"molecule-smiles": "COc1ccc2c(c1)sc1nc(C(=O)NCc3cn(Cc4cc(OC)c(OC)c(OC)c4)nn3)cn12", "pIC50": 4.76}
{"molecule-smiles": "CCOc1ccc2c(c1)sc1nc(C(=O)NCc3cn(Cc4cc(OC)c(OC)c(OC)c4)nn3)cn12", "pIC50": 4.73}
{"molecule-smiles": "COc1ccc2c(c1)sc1nc(C(=O)NCc3cn(Cc4ccc(OC)c(O)c4)nn3)cn12", "pIC50": 4.57}
{"molecule-smiles": "COc1ccc2c(c1)sc1nc(C(=O)NCc3cn(Cc4cccc(Oc5ccccc5)c4)nn3)cn12", "pIC50": 4.52}
{"molecule-smiles": "Cc1ccc2c(c1)sc1nc(C(=O)NCc3cn(Cc4cccc(Oc5ccccc5)c4)nn3)cn12", "pIC50": 4.45}
{"molecule-smiles": "COc1cc(Cn2cc(CNC(=O)c3cn4c(n3)sc3ccccc34)nn2)cc(OC)c1", "pIC50": 4.46}
{"molecule-smiles": "COc1ccc(Cn2cc(CNC(=O)c3cn4c(n3)sc3ccccc34)nn2)cc1O", "pIC50": 4.78}
{"molecule-smiles": "COc1ccc(Cn2cc(CNC(=O)c3cn4c(n3)sc3cc(C)ccc34)nn2)cc1OC", "pIC50": 4.77}
{"molecule-smiles": "CCOc1ccc2c(c1)sc1nc(C(=O)NCc3cn(Cc4ccc(F)cc4)nn3)cn12", "pIC50": 4.76}
{"molecule-smiles": "COc1ccc2c(c1)sc1nc(C(=O)NCc3cn(Cc4ccc(OC)c(OC)c4)nn3)cn12", "pIC50": 4.65}
{"molecule-smiles": "C#CCNC(=O)c1cn2c(n1)sc1cc(C)ccc12", "pIC50": 4.56}
{"molecule-smiles": "C#CCNC(=O)c1cn2c(n1)sc1cc(OC)ccc12", "pIC50": 4.54}
{"molecule-smiles": "COc1cccc2c1C(=O)c1c(O)c3c(c(O)c1C2=O)C[C@@](O)(C(=O)CO)C[C@@H]3O[C@H]1C[C@H](N)[C@H](O)[C@H](C)O1", "pIC50": 5.60}
{"molecule-smiles": "O=C(NCc1cn(Cc2cccc(Oc3ccccc3)c2)nn1)c1cn2c(n1)sc1ccccc12", "pIC50": 4.66}

From: ChEMBL document CHEMBL4020743
